Reference source for all entries: patent US6635621B1

- test.system: UniProt P07154
- Sequence (P07154 114-334): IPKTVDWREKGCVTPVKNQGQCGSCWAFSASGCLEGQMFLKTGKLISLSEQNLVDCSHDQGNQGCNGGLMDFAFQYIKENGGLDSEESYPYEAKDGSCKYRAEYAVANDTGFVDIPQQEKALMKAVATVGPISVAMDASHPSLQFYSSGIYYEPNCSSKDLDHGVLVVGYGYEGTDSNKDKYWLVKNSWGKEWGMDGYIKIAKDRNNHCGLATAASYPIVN
- assay.notes: In vitro assay for inhibition of cathepsin L
- Assay type: biochemical
- experimental.conditions: r rat cathepsin L, substrate N-CBZ-Phe-Arg-AMC, pH 5.0, 10 min incubation at room temperature
measured.metric: IC50 (µM)

molecule: CC(C)C[C@H](NC(=O)OCc1ccccc1)C(=O)N/C(=C/N1CCOCC1)C(=O)OC(C)(C)C [Example 20]
test.system: UniProt P07154
measured.number: 0.08
//
molecule: O=C(CCc1ccccc1)N[C@@H](Cc1ccccc1)C(=O)N/C(=C/N1CCOCC1)C(=O)OC(c1ccccc1)c1ccccc1 [Example 25]
test.system: UniProt P07154
measured.number: 0.18
//
molecule: CC(C)C[C@H](NC(=O)OCc1ccccc1)C(=O)N/C(=C\N1CCN(C)CC1)C(N)=O [Example 17]
test.system: UniProt P07154
measured.number: 0.23
//
molecule: COC(=O)CN/C=C(\NC(=O)[C@H](Cc1ccccc1)NC(=O)OCc1ccccc1)C(N)=O [Example 31b]
test.system: UniProt P07154
measured.number: 0.017

a = CC(C)C[C@H](NC(=O)OCc1ccccc1)C(=O)NC(=CNCc1ccccc1)C(=O)NCc1ccccc1 [Example 16]
b = CC(C)C[C@H](NC(=O)OCc1ccccc1)C(=O)NC(C(N)=O)C(O)O (stereo partly shown) [Example 11]
c = CC(C)C[C@H](NC(=O)OCc1ccccc1)C(=O)N/C(=C/N1CCOCC1)C(=O)c1ccc(F)cc1 [Example 29]
d = CC(C)C[C@H](NC(=O)OCc1ccccc1)C(=O)N/C(=C/O)C(N)=O [Example 15]
Qu. In this exercise, place the 4 molecules in ascending sequence of their recorded IC50. When ranking, write the labels in the order the request describes.
Ans. a, b, d, c
(a: 0.015 µM, b: 0.11 µM, d: 0.17 µM, c: 2.01 µM)
